experimentalDetails: Plasma PK of non-radiolabeled encorafenib
Assay type: in vivo, human
experimentalConditions: human, plasma, oral, 100 mg; GeoMean (GeoCV%)
measureName: Cmax
Answer format: number, then unit.

Lookup: Any idea what Cmax was measured for COC(=O)N[C@@H](C)CNc1nccc(-c2cn(C(C)C)nc2-c2cc(Cl)cc(NS(C)(=O)=O)c2F)n1 ?
Found: 1040 ng/mL

---

experimentalDetails: Plasma PK of non-radiolabeled encorafenib
Format: in vivo, human
experimentalConditions: human, plasma, oral, 100 mg; Median (Minimum–Maximum)
measureName: Cmax (ng/mL)
Hi! Could you send only the number? It should be in ng/mL, unit omitted.

Lookup: Any idea what Cmax was measured for COC(=O)N[C@@H](C)CNc1nccc(-c2cn(C(C)C)nc2-c2cc(Cl)cc(NS(C)(=O)=O)c2F)n1 ?
Found: 1080
